PROTOCOL NOTES: qHTS for Inhibitors of human tyrosyl-DNA phosphodiesterase 1 (TDP1): qHTS in cells in presence of CPT; further: nearly all actives have a fitted effect of over 55% in size; further: potency means the concentration at half of the fitted maximal effect
PROTOCOL CONDITIONS: chicken DT40 Tdp1-/-;hTDP1 cells + 20 nM CPT, ATP luminescence, 48 h; series mostly up to 46.2 µM
Out of some 420,000 compounds screened, about 50,000 (12%) were called active. About 26% were inconclusive and are not listed. What follows is part of a selection rich in actives, with near analogues and random picks from the rest.
MEASUREMENT KIND: Potency

>  <COMPOUND>
O=C(NCC1CCCO1)/C(=C/c1ccc(Cl)cc1)NC(=O)c1ccccc1 (stereo unspecified)

>  <VALUE>
inactive

$$$$
>  <COMPOUND>
Brc1cccc(-c2nnn3c2nc(NC2CCCCC2)c2ccccc23)c1

>  <VALUE>
inactive

$$$$
>  <COMPOUND>
CSc1ccccc1NC(=O)CCS(=O)(=O)c1nc(-c2cccs2)cc(C(F)(F)F)n1

>  <VALUE>
10.3 µM (active)

$$$$
>  <COMPOUND>
NS(=O)(=O)c1cccc(NC(=O)CC23CC4CC(CC(Br)(C4)C2)C3)c1

>  <VALUE>
inactive

$$$$
>  <COMPOUND>
COc1ccccc1-c1cc(C(F)(F)F)nc(S(=O)(=O)CCCC(=O)Nc2ccc(F)cc2F)n1

>  <VALUE>
5.17 µM (active)

$$$$
>  <COMPOUND>
COc1cc(OC)cc(C(=O)OCC(=O)Nc2ccc(F)cc2F)c1

>  <VALUE>
inactive

$$$$
>  <COMPOUND>
CC(=O)Nc1nc(N(C)C)nc(N(C)C)n1

>  <VALUE>
inactive

$$$$
>  <COMPOUND>
COc1cc(NC(=O)CSc2nc3nc(C)c(Cc4ccc(C)cc4)c(C)n3n2)cc(OC)c1OC

>  <VALUE>
13 µM (active)

$$$$
>  <COMPOUND>
COc1ccc(-c2cc(C(F)(F)F)nc(SCC(=O)Nc3ccc4c(c3)OCO4)n2)cc1OC

>  <VALUE>
inactive

$$$$
>  <COMPOUND>
Cc1cc(C(=O)Cn2cnc3cc([N+](=O)[O-])ccc3c2=O)c(C)n1CC1CCCO1 (stereo unspecified)

>  <VALUE>
14.6 µM (active)

$$$$
>  <COMPOUND>
O=C(CC12CC3CC(CC(C3)C1)C2)NCc1ccco1

>  <VALUE>
inactive

$$$$
>  <COMPOUND>
Cc1ccc(C(=O)Cc2nnc(C)s2)cc1

>  <VALUE>
inactive

$$$$
>  <COMPOUND>
COc1ccc(Nc2nc(N)nc(CSC(=S)N3CCC(C)CC3)n2)cc1

>  <VALUE>
inactive

$$$$
>  <COMPOUND>
Cc1ccc(O)c(NC(=O)CCS(=O)(=O)c2nc(-c3ccc4c(c3)OCO4)cc(C(F)(F)F)n2)c1

>  <VALUE>
8.2 µM (active)

$$$$
>  <COMPOUND>
CC(Sc1nc(-c2ccccc2)cc(C(F)(F)F)n1)C(=O)Nc1ccc2c(c1)OCO2 (stereo unspecified)

>  <VALUE>
inactive

$$$$
>  <COMPOUND>
CCCCN(C(=O)c1ccc(S(=O)(=O)N2CCOCC2)cc1)C1CCS(=O)(=O)C1 (stereo unspecified)

>  <VALUE>
inactive

$$$$
>  <COMPOUND>
COc1ccc(S(=O)(=O)N2CCN(CC(=O)N3c4ccccc4CC3C)CC2)cc1OC (stereo unspecified)

>  <VALUE>
inactive

$$$$
>  <COMPOUND>
CCOc1cc2[nH]c(=O)n(Cc3ccc(C(=O)NCCN(CC)CC)cc3)c(=O)c2cc1OCC

>  <VALUE>
inactive

$$$$
>  <COMPOUND>
CCCCCCCCCCCCCCCCO

>  <VALUE>
inactive

$$$$
>  <COMPOUND>
O=C(CSc1ccc(-c2cccs2)nn1)Nc1ccccc1F

>  <VALUE>
inactive

$$$$
>  <COMPOUND>
Cc1ccc(Cc2c(C)nc3nc(SCC(=O)NCCN4CCOCC4)nn3c2C)cc1

>  <VALUE>
inactive

$$$$

Every entry's value here was drawn from PubChem BioAssay AID686979.
